For each record, write down the corresponding log(1/C).
# Tested on: Salmonella typhimurium
# Protocol text: Mutagenicity in Salmonella typhimurium strain TA92 assessed as number of bacterial revertants after 2 days by Ames test in presence of rat liver S9 fraction
# Type: toxicity, organism-based
# Test context: salmonella enterica subsp. enterica serovar typhimurium, s9, 48 h
Form: value (number only, do not type unit).

Form field: reported log(1/C) of CN(C)/N=N/c1ccc(C(N)=O)cc1
4.04

// returns reported log(1/C) for input CCCCN(C)/N=N/c1ccc(C(N)=O)cc1
5.41

Need log(1/C) of CN(C)/N=N/c1cc(C#N)cc(C#N)c1 , thanks.
3.46

Entry under review: C=CCN(C)/N=N/c1ccc(C(N)=O)cc1 . Reported log(1/C)?
4.16

Dear colleague, I am looking for the recorded log(1/C) of the following compound: CN(C)/N=N/c1ccc(S(N)(=O)=O)cc1
3.49

Entry CN(C)/N=N/c1ccc(-c2ccccc2)cc1 has what log(1/C)?
7.67

Given COc1cc2c(c3oc(=O)c4c(c13)CCC4=O)[C@@H]1C=CO[C@@H]1O2 , state its recorded log(1/C).
9.48

Given CN(C)/N=N/c1ccc(NC(N)=O)cc1 , state its recorded log(1/C).
5.59

Can you look up the measured log(1/C) of CN(C)/N=N/c1cccc(C(N)=O)c1 for me?
3.51

Could you tell me which log(1/C) is on file for CN(C)/N=N/c1ccccc1 ?
5.32

Suppose we examine the compound Cc1cccc(/N=N/N(C)C)c1 ; what log(1/C) value has been reported?
6.44

Look up log(1/C): CC(=O)Nc1ccc(/N=N/N(C)C)cc1
5.83

Item under review: CN(/N=N/c1ccc(C(N)=O)cc1)C(C)(C)C . Reported log(1/C)?
3.83

Entry CN(C)/N=N/c1ccc(Cl)cc1 : reported log(1/C) = ?
6.48

Quick check: log(1/C) of CN(C)/N=N/c1[nH]cnc1C(N)=O ?
3

What value of log(1/C) has been reported for the following compound? CN(C)/N=N/c1cccc(NC(N)=O)c1
4.19

Which log(1/C) is listed for CN(C)/N=N/c1ccc(C#N)cc1 ?
4.43

So what's the measured log(1/C) for this one? CN(C)/N=N/c1ccc(C(F)(F)F)cc1
5.99

# log(1/C) lookup, item Cc1ccc(/N=N/N(C)C)cc1
7

Give the measured log(1/C) of CC(=O)c1ccc(/N=N/N(C)C)cc1 .
4.47
